Each recorded value in this set is attributed to patent US6160004A.

# System: 60 cell line panel
# ASSAY_METHOD_TEXT: NCI 60 cell line panel, whole panel
# CONDITION_DESCRIPTION: panel
READOUT_LABEL: Delta of Log10 TGI
Just the number.

## Task Report Delta of Log10 TGI for CC1CCC2C(C)C(CC(=O)c3ccc(C(=O)CC4OC5OC6(C)CCC7C(C)CCC(C4C)C57OO6)cc3)OC3OC4(C)CCC1C32OO4 (stereo not shown) [Dimer 38] please.
## Result 3.17

## Task Report Delta of Log10 TGI for CC1CCC2C(C)C(CC(=O)c3cccc(C(=O)CC4OC5OC6(C)CCC7C(C)CCC(C4C)C57OO6)c3)OC3OC4(C)CCC1C32OO4 (stereo not shown) [Dimer 39] please.
## Result 0.00

## Task Report Delta of Log10 TGI for C[C@H]1[C@@H](F)O[C@@H]2O[C@@]3(C)CC[C@H]4[C@H](C)CC[C@@H]1[C@@]24OO3 [Compound VI, 10β-Fluoro-10-deoxoartemisinin] please.
## Result 1.18

## Task Report Delta of Log10 TGI for CC(=O)O[C@H]1C(=O)[C@@]2(C)[C@H]([C@H](OC(=O)c3ccccc3)[C@]3(O)C[C@H](OC(=O)[C@H](O)[C@@H](NC(=O)c4ccccc4)c4ccccc4)C(C)=C1C3(C)C)[C@]1(OC(C)=O)CO[C@@H]1C[C@@H]2O [Paclitaxel, reference compound] please.
## Result -4.54
